// GI50 lookup, one value per entry
System: OVCAR-5
ASSAY NOTES: NCI tumour cell line growth inhibition, 48 h
The source made the active and inactive calls. Cut-off read from the data, not from the text of the source: active = GI50 up to about 1.1 µM and inactive = higher.
ENDPOINT: GI50

COMPOUND: CCCCCCNC(=O)C(C)C1CCC2(C)C=CC(=O)C(C)=C2C1O (centres undefined)
MEASUREMENT TARGET: OVCAR-5
ENDPOINT: GI50
OBSERVED VALUE: 99.1 µM (inactive)
--
COMPOUND: Cc1ccc2c(c1)C(C1Cc3c(C)cccc3C1=O)OC2=O (centres undefined)
MEASUREMENT TARGET: OVCAR-5
ENDPOINT: GI50
OBSERVED VALUE: > 100 µM (inactive)
--
COMPOUND: C[C@@H]1C[C@H]2[C@@H]3CCC4=CC(=O)C=C[C@]4(C)[C@@]3(F)[C@@H](O)C[C@]2(C)[C@@]1(O)C(=O)CO [DEXAMETHASONE]
MEASUREMENT TARGET: OVCAR-5
ENDPOINT: GI50
OBSERVED VALUE: > 100 µM (inactive)
--
COMPOUND: COc1ccccc1/N=N/C(=N\NC(=O)c1ccc(C)cc1)c1ccc(N(CCC#N)CCC#N)cc1C
MEASUREMENT TARGET: OVCAR-5
ENDPOINT: GI50
OBSERVED VALUE: > 100 µM (inactive)

----------
Test system: A549
ASSAY NOTES: NCI tumour cell line growth inhibition, 48 h
Active and inactive are the calls of the source. No stated cut-off is given here; in the data, active = GI50 up to about 1.1 µM and inactive = higher.
ENDPOINT: GI50

COMPOUND: CC1(C)OC[C@@]2([C@@H]3CC[C@@H](C3)C2(C)C)N1O
ENDPOINT: GI50
OBSERVED VALUE: > 100 µM (inactive)
//
COMPOUND: CN1CCN(C(=O)CCNC(=O)Cc2ccc(C(=O)c3ccccc3)cc2)CC1
ENDPOINT: GI50
OBSERVED VALUE: > 100 µM (inactive)
//
COMPOUND: COc1cc2c3c4c1OCc1c5c(cc(c1-4)CC3[N+](C)(C)CC2)OCO5 (stereo not given)
ENDPOINT: GI50
OBSERVED VALUE: > 100 µM (inactive)
//
COMPOUND: O=C(O)CCc1ccc2c(c1)C(=O)CC2
ENDPOINT: GI50
OBSERVED VALUE: > 100 µM (inactive)
//
COMPOUND: CN1c2c(O)nc(N)nc2NCC1CCNc1ccc(C(=O)NC(CCC(=O)O)C(=O)O)cc1 (stereo not given)
ENDPOINT: GI50
OBSERVED VALUE: 242 µM (inactive)
//
COMPOUND: O=C1C=C(Nc2ccccc2C(=O)CC(=O)C(=O)Nc2cccc([N+](=O)[O-])c2)c2ccccc2C1=O
ENDPOINT: GI50
OBSERVED VALUE: 83.9 µM (inactive)
//
COMPOUND: O=C(NCc1ccccc1)c1c(O)nc2ccccc2c1O
ENDPOINT: GI50
OBSERVED VALUE: > 100 µM (inactive)
//
COMPOUND: Cc1ccccc1OC(C)C(=O)NN1C(=O)CC(=O)N(c2ccc(Cl)cc2)C1=S (stereo not given)
ENDPOINT: GI50
OBSERVED VALUE: 43.9 µM (inactive)
//
COMPOUND: COC(=O)CCc1ccc2c(c1)CC1(Cc3ccccc3C1)C2
ENDPOINT: GI50
OBSERVED VALUE: 98.4 µM (inactive)
//
COMPOUND: COc1ccccc1/N=N/C(=N\NC(=O)c1ccc(C)cc1)c1ccc(N(CCC#N)CCC#N)cc1C
ENDPOINT: GI50
OBSERVED VALUE: 40.9 µM (inactive)
